Entry source: patent US10654833B2

- TARGET_SYSTEM: recombinant human ASK1 protein (Homo sapiens (Human), UniProt Q99683)
- Sequence (Q99683 whole entry): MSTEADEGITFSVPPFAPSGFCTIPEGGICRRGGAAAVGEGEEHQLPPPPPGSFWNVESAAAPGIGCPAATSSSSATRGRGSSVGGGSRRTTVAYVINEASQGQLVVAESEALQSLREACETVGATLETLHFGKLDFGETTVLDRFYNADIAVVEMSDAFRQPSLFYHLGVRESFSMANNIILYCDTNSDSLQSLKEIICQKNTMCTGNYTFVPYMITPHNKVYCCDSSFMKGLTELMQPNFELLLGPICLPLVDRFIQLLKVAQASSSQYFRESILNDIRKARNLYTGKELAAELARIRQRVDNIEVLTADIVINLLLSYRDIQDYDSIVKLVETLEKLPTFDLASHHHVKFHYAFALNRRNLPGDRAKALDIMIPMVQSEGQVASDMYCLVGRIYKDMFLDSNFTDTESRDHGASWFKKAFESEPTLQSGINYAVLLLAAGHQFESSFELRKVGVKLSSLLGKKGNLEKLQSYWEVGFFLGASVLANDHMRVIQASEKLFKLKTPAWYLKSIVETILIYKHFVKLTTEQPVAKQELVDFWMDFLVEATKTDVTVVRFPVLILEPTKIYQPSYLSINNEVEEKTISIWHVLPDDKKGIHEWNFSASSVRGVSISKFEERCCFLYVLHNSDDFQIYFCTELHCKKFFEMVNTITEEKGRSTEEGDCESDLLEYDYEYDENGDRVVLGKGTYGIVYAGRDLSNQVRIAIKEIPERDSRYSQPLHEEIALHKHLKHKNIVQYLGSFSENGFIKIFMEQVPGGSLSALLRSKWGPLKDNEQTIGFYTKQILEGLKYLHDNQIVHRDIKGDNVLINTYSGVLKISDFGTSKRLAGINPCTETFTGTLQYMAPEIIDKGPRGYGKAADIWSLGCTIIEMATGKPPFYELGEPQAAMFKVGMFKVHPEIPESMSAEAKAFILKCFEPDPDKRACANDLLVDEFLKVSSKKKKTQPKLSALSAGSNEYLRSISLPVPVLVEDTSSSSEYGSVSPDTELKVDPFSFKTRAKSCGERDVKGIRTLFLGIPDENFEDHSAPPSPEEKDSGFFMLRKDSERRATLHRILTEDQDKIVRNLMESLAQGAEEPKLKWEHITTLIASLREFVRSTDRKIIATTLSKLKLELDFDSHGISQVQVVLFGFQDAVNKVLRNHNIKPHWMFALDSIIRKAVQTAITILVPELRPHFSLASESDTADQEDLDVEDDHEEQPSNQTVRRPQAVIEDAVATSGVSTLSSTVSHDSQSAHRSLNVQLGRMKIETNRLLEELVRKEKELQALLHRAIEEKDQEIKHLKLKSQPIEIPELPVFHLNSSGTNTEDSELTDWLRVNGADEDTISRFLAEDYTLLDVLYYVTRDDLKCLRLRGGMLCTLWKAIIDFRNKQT
- PROTOCOL_DESCRIPTION: ASK1 kinase activity inhibition assay (radiometric 33P incorporation into MBP)
- Type: biochemical
- DETAILS: Table 3; 20 μM MBP, 10 μM 33P-ATP
- Experimental: ASK1 Kinase Activity Inhibition Assay Inhibition of ASK1 kinase activity was determined radiometrically using 33P substrate incorporation (Reaction Biology Corp., Malvern, Pa.). […] Upon reaction termination, the mixture was spotted on P81 exchange paper and kinase activity by incorporation of 33P into MBP substrate was detected by filter-binding method.
pIC50: −log10 of the molar value.

{"CHEMICAL_SMILES": "COc1cc(N)c(-c2ccc3c(c2)C(=O)N(c2cccc(-c4nncn4C(C)C)n2)C3)cc1C(=O)O", "pIC50": 8.05}
{"CHEMICAL_SMILES": "CC(C)n1cnnc1-c1cccc(N2Cc3ccc(-c4ccc(OCC(=O)O)cc4)cc3C2=O)n1", "pIC50": 8.31}
{"CHEMICAL_SMILES": "O=C1c2cc(-c3ccc(C4(C(=O)O)CC4)cc3)ccc2CN1c1cccc(-c2nncn2C2CC2)n1", "pIC50": 8.60}

* * *

- TARGET_SYSTEM: recombinant human ASK1 protein (Homo sapiens (Human), UniProt Q99683)
- PROTOCOL_DESCRIPTION: ASK1 kinase activity inhibition assay (radiometric 33P incorporation into MBP)
- Format: biochemical
- DETAILS: Table 3; 20 μM MBP, 10 μM 33P-ATP
pIC50: −log10 of the molar value.

{"CHEMICAL_SMILES": "COC(=O)C(C)(C)c1ccc(-c2ccc3c(c2)C(=O)N(c2cccc(-c4nncn4C(C)C)n2)C3)cc1", "pIC50": 8.31}
{"CHEMICAL_SMILES": "CC(C)n1cnnc1-c1cccc(N2Cc3ccc(-c4cc(F)cc(C(=O)O)c4)cc3C2=O)n1", "pIC50": 8.17}
{"CHEMICAL_SMILES": "COc1cc(-c2ccc3c(c2)C(=O)N(c2cccc(-c4nncn4C(C)C)n2)C3)ccc1C(=O)O", "pIC50": 8.25}
{"CHEMICAL_SMILES": "CC(C)n1cnnc1-c1cccc(N2Cc3ccc(-c4ccc(C(=O)O)cc4)cc3C2=O)n1", "pIC50": 8.27}
{"CHEMICAL_SMILES": "CC(C)n1cnnc1-c1cccc(N2Cc3ccc(-c4cncc(C(=O)O)c4)cc3C2=O)n1", "pIC50": 8.29}

* * *

- TARGET_SYSTEM: recombinant human ASK1 protein (Homo sapiens (Human))
- PROTOCOL_DESCRIPTION: ASK1 kinase activity inhibition assay (radiometric 33P incorporation into MBP)
- Format: biochemical
- DETAILS: Table 3; 20 μM MBP, 10 μM 33P-ATP
Quick reference for IC50 among some molecules
OBSERVED_PROPERTY: IC50 (nM)

{"CHEMICAL_SMILES": "COc1c(C)cc(-c2ccc3c(c2)C(=O)N(c2cccc(-c4nncn4C(C)C)n2)C3)cc1C(=O)O", "OBSERVED_PROPERTY": "IC50", "ASSAY_VALUE": 5.2}
{"CHEMICAL_SMILES": "COC(=O)C(C)(C)c1cccc(-c2ccc3c(c2)C(=O)N(c2cccc(-c4nncn4C4CC4)n2)C3)c1", "OBSERVED_PROPERTY": "IC50", "ASSAY_VALUE": 46.6}
{"CHEMICAL_SMILES": "CC(C)n1cnnc1-c1cccc(N2Cc3ccc(-c4ccc(C(=O)O)c(S(C)(=O)=O)c4)cc3C2=O)n1", "OBSERVED_PROPERTY": "IC50", "ASSAY_VALUE": 2.8}

* * *

- TARGET_SYSTEM: recombinant human ASK1 protein (Homo sapiens (Human))
- PROTOCOL_DESCRIPTION: ASK1 kinase activity inhibition assay (radiometric 33P incorporation into MBP)
- Assay type: biochemical
- DETAILS: Table 3; 20 μM MBP, 10 μM 33P-ATP
pIC50: −log10 of the molar value.
Quick reference for pIC50 among some compounds

{"CHEMICAL_SMILES": "CC(C)n1cnnc1-c1cccc(N2Cc3ccc(-c4ccc(C(=O)O)cc4O)cc3C2=O)n1", "pIC50": 8.18}
{"CHEMICAL_SMILES": "CC(C)n1cnnc1-c1cccc(N2Cc3ccc(-c4ccc(C(=O)O)c(CO)c4)cc3C2=O)n1", "pIC50": 8.21}
{"CHEMICAL_SMILES": "CC(C)n1cnnc1-c1cccc(N2Cc3ccc(-c4ccc(CCC(=O)O)cc4)cc3C2=O)n1", "pIC50": 8.36}
{"CHEMICAL_SMILES": "CC(C)n1cnnc1-c1cccc(N2Cc3ccc(-c4ccc(Cl)c(C(=O)O)c4)cc3C2=O)n1", "pIC50": 8.30}
{"CHEMICAL_SMILES": "COC(=O)c1cccc(-c2ccc3c(c2)C(=O)N(c2cccc(-c4nncn4C(C)C)n2)C3)c1", "pIC50": 8.20}
{"CHEMICAL_SMILES": "Cc1c(C(=O)O)ccnc1-c1ccc2c(c1)C(=O)N(c1cccc(-c3nncn3C(C)C)n1)C2", "pIC50": 8.68}
{"CHEMICAL_SMILES": "Cc1cc(C(=O)O)ccc1-c1ccc2c(c1)C(=O)N(c1cccc(-c3nncn3C(C)C)n1)C2", "pIC50": 8.24}
{"CHEMICAL_SMILES": "CC(C)n1cnnc1-c1cccc(N2Cc3ccc(-c4ccc(O)c(C(=O)O)c4)cc3C2=O)n1", "pIC50": 8.15}
{"CHEMICAL_SMILES": "COc1ccc(-c2ccc3c(c2)C(=O)N(c2cccc(-c4nncn4C(C)C)n2)C3)cc1C(=O)O", "pIC50": 8.31}
{"CHEMICAL_SMILES": "CC(C)n1cnnc1-c1cccc(N2Cc3ccc(-c4nccc(C(=O)O)c4F)cc3C2=O)n1", "pIC50": 8.80}
{"CHEMICAL_SMILES": "COC(=O)c1ccc(-c2ccc3c(c2)C(=O)N(c2cccc(-c4nncn4C(C)C)n2)C3)cc1", "pIC50": 7.83}
{"CHEMICAL_SMILES": "O=C(O)c1cccc(-c2ccc3c(c2)C(=O)N(c2cccc(-c4nncn4C4CC4)n2)C3)c1", "pIC50": 8.28}
{"CHEMICAL_SMILES": "Cc1c(F)cc(C(=O)O)cc1-c1ccc2c(c1)C(=O)N(c1cccc(-c3nncn3C(C)C)n1)C2", "pIC50": 8.31}
{"CHEMICAL_SMILES": "CC(C)(C(=O)O)c1cccc(-c2ccc3c(c2)C(=O)N(c2cccc(-c4nncn4C4CC4)n2)C3)c1", "pIC50": 7.90}
{"CHEMICAL_SMILES": "O=C1c2cc(-c3cccc(-c4nn[nH]n4)c3)ccc2CN1c1cccc(-c2nncn2C2CC2)n1", "pIC50": 8.26}
{"CHEMICAL_SMILES": "CC(C)n1cnnc1-c1cccc(N2Cc3ccc(-c4cc(F)c(C(=O)O)c(F)c4)cc3C2=O)n1", "pIC50": 8.34}
{"CHEMICAL_SMILES": "CC(C)n1cnnc1-c1cccc(N2Cc3ccc(-c4ccc(CC(=O)O)cc4)cc3C2=O)n1", "pIC50": 8.37}
